Molecular target: T1, Rb^P M546I (human, UniProt P06400 380-788, M546I)
T1 construct: also called variant 25
T1 sequence (looked up): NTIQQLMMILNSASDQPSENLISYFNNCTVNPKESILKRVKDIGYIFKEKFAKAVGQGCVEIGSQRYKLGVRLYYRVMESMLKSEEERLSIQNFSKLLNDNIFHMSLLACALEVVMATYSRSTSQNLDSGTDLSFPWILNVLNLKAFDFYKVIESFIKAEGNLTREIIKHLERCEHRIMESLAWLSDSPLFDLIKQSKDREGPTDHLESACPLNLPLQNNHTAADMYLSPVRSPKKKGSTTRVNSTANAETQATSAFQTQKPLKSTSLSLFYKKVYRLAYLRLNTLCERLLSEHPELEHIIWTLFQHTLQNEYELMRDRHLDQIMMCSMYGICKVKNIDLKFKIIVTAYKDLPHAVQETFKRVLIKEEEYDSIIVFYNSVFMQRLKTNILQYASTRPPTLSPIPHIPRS
Test: fluorescence polarisation; 25 °C; unlabeled Rb^P titrated against 1.5 nM TMR-E2F1^TD or 7.5 nM TMR-E7^LxCxE; 25 mM Tris pH 8.0, 200 mM NaCl, 1 mM DTT, 0.1% Tween-20; 2 min incubation; quadratic fit; apparent Kd for the variants, Kd for WT
Conditions: both partners purified
No end group written: not given here. TMR = tetramethyl rhodamine dye
# Kd per record follows
Assay Endpoint: Kd (nM)

- Binder: "DLYCYEQLN (also: TMR label, position not given here, source: synthetic peptide, bought: GenScript) [TMR-E7^LxCxE, LxCxE peptide of the E7 oncoprotein from HPV]"
  Assay Endpoint: "Kd"
  Value Reported: 7
- Binder: "{TMR}-GEGIRDLFDCDFGDLTPLD (also called E2F^TD; source: synthetic peptide, bought: GenScript) [TMR-E2F1^TD, peptide of the E2F1 transactivation domain]"
  Assay Endpoint: "Kd"
  Value Reported: 13
